- ASSAYED TARGET: Genome polyprotein (Human rhinovirus sp.)
- Sequence (Q04107 whole entry): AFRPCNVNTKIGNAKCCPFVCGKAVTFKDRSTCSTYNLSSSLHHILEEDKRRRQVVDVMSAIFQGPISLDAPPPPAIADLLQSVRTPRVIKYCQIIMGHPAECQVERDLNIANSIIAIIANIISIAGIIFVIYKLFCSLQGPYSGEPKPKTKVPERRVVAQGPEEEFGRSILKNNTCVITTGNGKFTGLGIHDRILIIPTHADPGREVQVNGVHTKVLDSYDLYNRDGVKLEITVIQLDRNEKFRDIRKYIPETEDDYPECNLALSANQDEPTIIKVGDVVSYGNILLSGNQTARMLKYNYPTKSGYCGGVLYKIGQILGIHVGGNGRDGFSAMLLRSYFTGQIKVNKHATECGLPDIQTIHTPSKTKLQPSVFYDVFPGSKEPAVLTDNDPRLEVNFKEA
Here, each record is paired with measured IC50 data.

Summary for this molecule, Cc1cc(O)c2c(c1)C(=O)c1cc(O)cc(O)c1C2=O : IC50 is > 150 µM

Summary for this molecule, O=C1C=Cc2ccccc2C1=O [1,2-dihydronaphthalene-1,2-dione] : IC50 is 8.2 µM

Summary for this molecule, CC1Cc2cc(O)c3c(c2C(=O)O1)C(=O)C=C(C1=CC(=O)c2c(c(O)cc4c2C(=O)OC(C)C4)C1=O)C3=O (stereo not drawn) : IC50 is 6 µM
